Hey, just so you know, these numbers are from paper PMC4201290.

System: WT1 ZnF2-4 (-KTS) (Homo sapiens), P19544-4
Sequence (P19544 other isoform, or with tags, fused parts or gaps): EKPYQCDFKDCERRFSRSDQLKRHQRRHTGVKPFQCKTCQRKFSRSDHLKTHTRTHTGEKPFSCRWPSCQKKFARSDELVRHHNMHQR
run.description: fluorescence polarization
assay.setup: 300 mM NaCl; ~25-fold weaker than M/M; also printed as KD > 2.3 uM; 5caC at C3 and C9 of strand 1; 5mC at C3 and C9 of strand 2; FP: 5 nM FAM-dsDNA, 300 mM NaCl (200 mM in Fig 4E), 20 mM Tris-HCl pH 7.5, 5% glycerol, 0.5 mM TCEP, 25 C, 10 min
attribute.measured: pKd
One number for each entry, as −log10 of the molar value.

Consider the sequence AGCGTGGGCGT / TACGCCCACGC [5caCx2] and give its measured pKd.
5.64
